# tgt: recombinant GSK3β kinase (Homo sapiens (Human))
# Sequence (P49841 whole entry): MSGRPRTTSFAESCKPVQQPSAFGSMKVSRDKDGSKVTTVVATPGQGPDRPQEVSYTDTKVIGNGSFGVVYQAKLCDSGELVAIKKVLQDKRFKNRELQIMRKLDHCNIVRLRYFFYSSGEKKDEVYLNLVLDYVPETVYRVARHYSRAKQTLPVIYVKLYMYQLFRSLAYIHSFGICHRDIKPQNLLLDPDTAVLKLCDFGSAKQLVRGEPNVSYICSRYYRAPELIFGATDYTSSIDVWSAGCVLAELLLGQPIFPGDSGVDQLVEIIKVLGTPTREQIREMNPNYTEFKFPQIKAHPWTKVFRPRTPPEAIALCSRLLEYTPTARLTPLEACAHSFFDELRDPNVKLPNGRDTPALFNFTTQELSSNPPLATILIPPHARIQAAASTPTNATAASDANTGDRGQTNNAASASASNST
# test method notes: GSK3β kinase assay (Ser/Thr 09 peptide Z-lyte, FRET)
# Type: biochemical
# details: 46 μM ATP, one hour at room temperature, read-out: EC50 (μM) (IC50 per method)
quantity measured: IC50 (µM)

// solved cases for IC50 follow
{"chemical smiles": "O=C1CCCc2cccc(c2)-c2cccc3[nH]c(nc23)-c2n[nH]c3ccc(cc23)-c2cncc(c2)N1", "tgt": "recombinant GSK3β kinase (Homo sapiens (Human))", "result number": 0.014}
{"chemical smiles": "O=C1CCc2cccc(c2)-c2nccc3[nH]c(nc23)-c2n[nH]c3ccc(cc23)-c2cncc(c2)N1", "tgt": "recombinant GSK3β kinase (Homo sapiens (Human))", "result number": 0.001}
{"chemical smiles": "O=C1CCc2cccc(c2)-c2ccnc3[nH]c(nc23)-c2n[nH]c3ccc(cc23)-c2cncc(c2)N1", "tgt": "recombinant GSK3β kinase (Homo sapiens (Human))", "result number": 0.494}
{"chemical smiles": "c1cc2cc(c1)-c1cccc3[nH]c(nc13)-c1n[nH]c3ccc(cc13)-c1cncc(c1)CNC2", "tgt": "recombinant GSK3β kinase (Homo sapiens (Human))", "result number": 0.004}
{"chemical smiles": "O=C1CCc2cccc(c2)-c2cccc3[nH]c(nc23)-c2n[nH]c3cnc(cc23)-c2cncc(c2)N1", "tgt": "recombinant GSK3β kinase (Homo sapiens (Human))", "result number": 0.004}

A = O=C1NC2CCC(CC2)NCc2cncc(c2)-c2ccc3[nH]nc(c3c2)-c2nc3c1cccc3[nH]2
B = CN1Cc2cncc(c2)-c2ccc3[nH]nc(c3c2)-c2nc3c(cccc3[nH]2)-c2cccc(c2)C1
C = CN1CCCn2cc(nn2)-c2cncc3[nH]c(nc23)-c2n[nH]c3ccc(cc23)-c2cncc(c2)C1
D = c1cc2cc(c1)-c1cccc3[nH]c(nc13)-c1n[nH]c3ccc(cc13)-c1cncc(c1)OCCC2
E = O=C1CCc2cccc(c2)-c2cccc3[nH]c(nc23)-c2n[nH]c3ccc(cc23)-c2cncc(c2)N1
Ordering: ascending IC50. To answer, write out the labels according to the requested order.
C, E, B, A, D

a = Cn1ncc2c1CNCc1cccc(c1)-c1cccc3[nH]c(nc13)-c1n[nH]c3ccc-2cc13
b = O=C1CCc2cccc(c2)-c2cncc3[nH]c(nc23)-c2n[nH]c3ccc(cc23)-c2cncc(c2)N1
c = O=C1CCc2cccc(c2)-c2cccc3[nH]c(nc23)-c2n[nH]c3ncc(cc23)-c2cncc(c2)N1
Ordering: ascending IC50. To answer, write out the labels according to the requested order.
b, a, c

P = O=C1CCc2cccc(c2)-c2cncc(c2)NC(=O)c2n[nH]c3ccc(cc23)-c2cncc(c2)CN1
Q = c1cc2cc(c1)-c1cncc3[nH]c(nc13)-c1n[nH]c3ccc(cc13)-c1cncc(c1)CNC2
// max by IC50 over [ P , Q ] Reply briefly: the label of your chosen item.
P

---

# tgt: recombinant GSK3β kinase (Homo sapiens (Human))
# test method notes: GSK3β kinase assay (Ser/Thr 09 peptide Z-lyte, FRET)
# Format: biochemical
# details: 46 μM ATP, one hour at room temperature, read-out: EC50 (μM) (IC50 per method)
quantity measured: IC50 (µM)

{"compound": "O=C1COc2cccc(c2)-c2cncc3[nH]c(nc23)-c2n[nH]c3ccc(cc23)-c2cncc(c2)N1 [Compound 38]", "tgt": "recombinant GSK3β kinase (Homo sapiens (Human))", "IC50, µM": 0.001}

a = CN1Cc2cccc(c2)-c2cccc3[nH]c(nc23)-c2n[nH]c3ccc(cc23)-c2cnn(C)c2C1 [Compound 29]
b = CN1CCCCN(C)c2nccc3[nH]c(nc23)-c2n[nH]c3ccc(cc23)-c2cncc(c2)C1 [Compound 51]
c = c1cc2cc(c1)-c1cccc3[nH]c(nc13)-c1n[nH]c3ccc(cc13)-c1cncc(n1)NCCO2 [Compound 109]
Task field, ranking: reported IC50, descending order. To answer, write out the labels according to the requested order.
c, a, b
(c: 0.062 µM, a: 0.015 µM, b: 0.002 µM)
